// values below are reported melting point
// note: answer is a bare numeric in °C

// worked examples, melting point included
CC=CC(C)(C)C
-115
CCC(CO)[N+](=O)[O-] (stereo unspecified)
-47
O=C(Cl)c1cccc(F)c1
-30
COc1ccc(C(O)(c2cc(OC)c(OC)c(OC)c2)c2ccc(OC)cc2OC)c(OC)c1
109

Read the next record carefully.
(Q) Given O=C(C1=NOC2C(=O)N(c3ccc(O)cc3)C(=O)C12)c1ccccc1 (stereo unspecified) , respond with its melting point.
(A) 99

----------
Threshold rule: melting point greater than or equal to 200 °C is Condition met; below that, Condition not met.

Use these answered entries as a reference point.
O=S1(=O)OCC2C(CO1)C1(Cl)C(Cl)=C(Cl)C2(Cl)C1(Cl)Cl (stereo not drawn)
Condition not met
BrC(Br)=Cc1ccccc1
Condition not met
Fc1cccc2cc[nH]c12
Condition not met
COc1cc(C)cc2c1C(=O)C2
Condition not met

(Q) // inclusive: melting point at least 200 °C? input: ClC[Si]12OCCN(CCO1)CCO2
(A) Condition met

(Q) // inclusive: melting point at least 200 °C? input: Cc1ccc([N+](=O)[O-])cc1F
(A) Condition not met

(Q) // inclusive: melting point at least 200 °C? input: O=C1C=CC(=O)N1c1ccc(Nc2ccccc2)c2ccccc12
(A) Condition met

----------
// values below are reported melting point

// worked examples, melting point included
CC(NC(=O)OC(C)(C)C)C(=O)N1CCCC1C(=O)OCc1ccccc1 (configuration not stated)
68 to 70 °C
CC(C)NCC(O)COc1cccc2c1C=CC2 (configuration not stated)
88.5 °C
CN1CCN=C1C(C1=NCCN1C)C1=NCCN1C
241 to 243 °C
O=C(COc1ncn(-c2ccc(Cl)cc2)n1)NNC(=S)NCc1ccccc1
133 to 135 °C
O=C1C(=O)c2ccccc2CCc2ccccc21
132 °C
O=S(=O)(O)c1cccc2cnccc12
300 °C
COc1ccc2c(c1)C(=O)C(=O)N2
200 °C
Cc1cc(C)c2c(c1C)CC2=O
98 °C
CSCCC(N)C(=O)O (configuration not stated)
281 °C
Cc1cc2c(o1)-c1c(oc3ccc(Cl)cc13)CCC2C (configuration not stated)
93 °C

(Q) Given CCOC(=O)c1[nH]c(C)c(C=O)c1C , respond with its melting point.
(A) 145 to 146 °C

(Q) Given COc1cc2c(cc1OC)C1(O)C(=O)c3ccc4c(c3OC1CO2)C=CC(C)(C)O4 (configuration not stated) , respond with its melting point.
(A) 198 °C

----------
// values below are reported melting point
// note: answer is a bare numeric in °C

// worked examples, melting point included
Cc1cc[nH]n1
36.5
NNC(=S)NCCN1CCOCC1
166
Cc1[nH]nc(Cl)c1[N+](=O)[O-]
111
Fc1ccc(Oc2ccnc3cc(Cl)cc(Cl)c23)cc1
107
CC1CCC2(OC1)OC1CC3C4CCC5CC(O)CCC5(C)C4CC(=O)C3(C)C1C2C (stereo unspecified)
266
CCOC(=O)c1sc2sc(C(=O)OCC)c(NC(=O)c3ccccc3)c2c1NC(=O)c1ccccc1
286
C(=C/c1ccco1)/c1ccc2cc3ccc(/C=C/c4ccco4)nc3cc2n1
272
CC1C(=O)CCCC1=O
206
CC(C)(Oc1ccc(Cl)cc1)C(=O)OCc1cccnc1
48.5
FC1(F)C(F)(F)C(F)(F)C2(F)C(F)(F)C(F)(F)C(F)(F)C(F)(F)C2(F)C1(F)F (stereo unspecified)
-10

(Q) Given N#Cc1ccc(Br)cc1F , respond with its melting point.
(A) 71

(Q) Given N=C(N)NC(=N)NCCc1ccccc1 , respond with its melting point.
(A) 176

(Q) Given CCCCCCCCCCCCCCCCCCCC1CCCCC1 , respond with its melting point.
(A) 45

(Q) Given N#Cc1ccccc1C#N , respond with its melting point.
(A) 140

----------
// values below are reported melting point
// note: answer is a bare numeric in °C

(Q) Given OC1CN2CCCC(O)C2C1O (stereo not drawn) , respond with its melting point.
(A) 144

----------
// values below are reported melting point
// note: answer is a bare numeric in °C

// worked examples, melting point included
CN1C(=O)CCS(=O)(=O)C1c1ccc(Cl)cc1 (stereo not given)
116
CCCCCCCCNCCCCCCCC
35.5
C=CCOc1c(Br)cc(C(C)(C)c2cc(Br)c(OCC=C)c(Br)c2)cc1Br
119

(Q) Given CC(C)(C)NCC(O)COc1nsnc1N1CCOCC1 (stereo not given) , respond with its melting point.
(A) 202

(Q) Given CC(O)CN(CC(C)O)C(=O)COC(=O)c1ccccc1 (stereo not given) , respond with its melting point.
(A) 106

(Q) Given CCOC(=O)c1cc(C)[nH]c(=S)c1C#N , respond with its melting point.
(A) 214

(Q) Given CCc1ccc(Cc2ccccc2)cc1 , respond with its melting point.
(A) -24

(Q) Given COc1ccccc1C(=O)Oc1ccc(/C=C/C(=O)c2ccccc2)cc1 , respond with its melting point.
(A) 115

(Q) Given CCNc1c(C=O)c(=O)oc2ccccc12 , respond with its melting point.
(A) 181

(Q) Given COC(=O)c1ccc(O)c(N)c1 , respond with its melting point.
(A) 143

(Q) Given c1cc(N2CCCC2)ccn1 , respond with its melting point.
(A) 56

(Q) Given O=[N+]([O-])c1ccc2c(O)c(-c3ccc(-c4[nH]c5cc([N+](=O)[O-])ccc5c4O)cc3)[nH]c2c1 , respond with its melting point.
(A) 360

----------
measured-quantity: melting point (°C)
// note: answer is a bare numeric in °C

Cc1cccc2ccc3ccccc3c12
53.5

(Q) Given CC1(C)CC(=O)CC(C)(C)N1 , respond with its melting point.
(A) 36

(Q) Given Oc1c(F)cc(F)cc1F , respond with its melting point.
(A) 49.5

(Q) Given Cc1ccc(Br)cc1[N+](=O)[O-] , respond with its melting point.
(A) 47

(Q) Given O=c1n(-c2ccccc2)c(=O)n2n1C1OC3CCC1C32 (stereo not drawn) , respond with its melting point.
(A) 144

(Q) Given N#CCN(CC#N)CC#N , respond with its melting point.
(A) 126

(Q) Given CCCC(C)(C)C(=O)Nc1ccc(Cl)cc1 , respond with its melting point.
(A) 87.5

----------
// values below are reported melting point
// note: answer is a bare numeric in °C

// worked examples, melting point included
Nc1ncc([N+](=O)[O-])cn1
237
Oc1ccc2c(c1)C13CCCCC1C(C2)N(CC1CC1)CC3 (configuration not stated)
188
Clc1ccc2nccnc2c1
64
C#CCCCCCCCC
-44
Nc1ccc(N=Nc2ccc(N)cc2)cc1
250
CC(=O)CC(=O)Nc1ccc(Cl)cc1
132
Cc1ccc(Br)c([N+](=O)[O-])c1
31
NNC(=O)c1ccc(O)cc1O
241

(Q) Given Nc1cc(N)cc(C(=O)O)c1 , respond with its melting point.
(A) 235

(Q) Given CC(=O)Nc1ccccc1/C=C/c1cc(C)c([N+](=O)[O-])cc1[N+](=O)[O-] , respond with its melting point.
(A) 252

(Q) Given O=C(N[C@H](Cc1cccc(Br)c1)C(=O)O)OCC1c2ccccc2-c2ccccc21 , respond with its melting point.
(A) 146

(Q) Given CCC(N)Cc1c[nH]c2ccccc12 (configuration not stated) , respond with its melting point.
(A) 97

(Q) Given O=C(NC(CSSCC(NC(=O)OCc1ccccc1)C(=O)O)C(=O)O)OCc1ccccc1 (configuration not stated) , respond with its melting point.
(A) 84

(Q) Given N#Cc1ccc(Br)cn1 , respond with its melting point.
(A) 126

(Q) Given CCOC(=O)c1sc2sc(C#N)c(N)c2c1N , respond with its melting point.
(A) 260

(Q) Given CCOC(=O)c1nn(-c2ccc(C)cc2)c(C)c1C(=O)C1=NOC2C(=O)N(c3ccc(C(=O)O)cc3)C(=O)C12 (configuration not stated) , respond with its melting point.
(A) 281

(Q) Given C=C=Cn1cnc2c(N)ncnc21 , respond with its melting point.
(A) 186

----------
measured-quantity: melting point (°C)
// note: answer is a bare numeric in °C

// worked examples, melting point included
COc1ccc(C2C(C#N)=C(N)Oc3cc(C)n(CCc4ccccc4)c(=O)c32)cc1 (configuration not stated)
264
O=c1cc(-c2ccc(O)c(O)c2)oc2ccccc12
250
OCc1ccc(F)cc1
23
CC(=O)OCCOC(C)=O
-31
COC(=O)CCc1ccc2c(c1)CCC(=O)N2
134

(Q) Given COc1cc(Cc2cnc(N)nc2N)cc(OC)c1Br , respond with its melting point.
(A) 226

(Q) Given COc1cc(N)c(Cl)cc1C(=O)NC1CCN(Cc2ccccc2)CC1 , respond with its melting point.
(A) 194

(Q) Given CC(CC1CCCCC1)C1CCCCC1 (configuration not stated) , respond with its melting point.
(A) -22

(Q) Given ClC1=C(Cl)C2(Cl)C(CBr)CC1(Cl)C2(Cl)Cl (configuration not stated) , respond with its melting point.
(A) 77

(Q) Given CC(C)(C)OC(=O)N1CC(C(=O)O)C1 , respond with its melting point.
(A) 102
